# assayed system: β-glucuronidase Type VII-A derived from Escherichia coli (Escherichia coli, UniProt P05804)
# Construct: purchased Sigma-Aldrich Corporation
# Sequence (P05804 whole entry): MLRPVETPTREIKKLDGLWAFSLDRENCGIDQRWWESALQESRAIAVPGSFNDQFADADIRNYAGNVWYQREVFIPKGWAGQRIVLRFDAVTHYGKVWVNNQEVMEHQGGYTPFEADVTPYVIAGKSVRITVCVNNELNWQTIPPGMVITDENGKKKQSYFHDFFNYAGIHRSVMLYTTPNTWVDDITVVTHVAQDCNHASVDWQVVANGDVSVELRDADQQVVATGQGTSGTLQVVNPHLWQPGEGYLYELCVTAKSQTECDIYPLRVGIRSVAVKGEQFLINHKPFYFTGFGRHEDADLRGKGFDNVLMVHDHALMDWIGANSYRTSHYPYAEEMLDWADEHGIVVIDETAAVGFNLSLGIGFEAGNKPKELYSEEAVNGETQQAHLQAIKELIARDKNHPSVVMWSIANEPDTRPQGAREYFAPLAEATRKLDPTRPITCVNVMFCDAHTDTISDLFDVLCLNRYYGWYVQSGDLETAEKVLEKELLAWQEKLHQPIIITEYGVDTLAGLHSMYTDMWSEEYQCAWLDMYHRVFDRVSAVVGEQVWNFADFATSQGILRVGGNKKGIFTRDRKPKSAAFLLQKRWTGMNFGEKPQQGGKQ
# assay explanation: Inhibition of β-glucuronidase activity (PNPG substrate, absorbance at 400 nm)
# Type: biochemical
# applied conditions: 0.1 wt % in reaction solution; 1.6 units/mL enzyme; 37° C., 2 hours; pH 6.8; read-out: Inhibition rate (%) Concentration 0.1%
Field: inhibition at 0.1 wt %. Provide a value for each of the compounds that follow.
Don't forget the unit after the number, please.

Use these answered entries as a reference point.
INSERT INTO assay_data (compound, assay_result) VALUES
  ('O=C1CCCCCCCCCOCCCCCO1 [11-Oxa-16-hexadecanolide, 11-oxa-16-hexadecanolide]', '62.8%'),
  ('CC(C=O)Cc1ccc(C(C)(C)C)cc1 (stereo not drawn)', '72.3%'),
  ('CC(C)=CCCC(C)CCO (stereo not drawn)', '76.2%'),
  ('C=CCc1ccc(O)c(OC)c1', '93.2%'),
  ('CC(C=O)Cc1ccc2c(c1)OCO2 (stereo not drawn)', '76.4%'),
  ('O=C1CCCCCCCCOCCCCCCO1 [10-Oxa-16-hexadecanolide, 10-oxa-16-hexadecanolide]', '99.4%'),
  ('O=CCCc1ccccc1', '81.7%'),
  ('C=CCc1ccc(OC)cc1', '99.4%'),
  ('CCCCCCCC1CCCC1=O (stereo not drawn)', '70.6%'),
  ('CC(CCO)CCc1ccccc1 (stereo not drawn)', '61.2%');

// each listed compound needs a value for inhibition at 0.1 wt %
1. O=CCc1ccccc1
2. CC(=O)OCC=Cc1ccccc1 [Cinnamyl acetate, cinnamyl acetate]
3. CC(C)CCOCCc1ccccc1
4. CC(C)(O)CCCC1=CCC(C=O)CC1 (stereo not drawn)
5. C=CC(C)(O)CCC=C(C)C (stereo not drawn)

Reply:
["72.2%", "96.2%", "88.8%", "94.4%", "91%"]

Dear reader, for each entry below, please note its inhibition at 0.1 wt %.
1. C=C(C)[C@@H]1CCC2=CC(=O)C[C@@H](C)[C@]2(C)C1
2. COC1(C)CCCCCCCCCCC1

Reply:
1. 95.2%
2. 92.4%

Provide reported inhibition at 0.1 wt % for each item, in the same order as listed.
1. O=C1CCCC=CCCCCCCCCCC1
2. C=CC(C)(CCC=C(C)C)OC(C)=O (stereo not drawn) [Linalyl acetate, linalyl acetate]
3. CC1CCCCCCCCCCCCC(=O)C1 (stereo not drawn)
4. CCC=CCCC=CC=O
5. O=C1CCC=CCCCCCCCCCC1

Reply:
["98.4%", "95.8%", "86.4%", "95.2%", "99.1%"]

Provide inhibition at 0.1 wt % for all items below, preserving their order.
1. CC/C=C\CCOC(=O)c1ccccc1 [cis-3-Hexenyl benzoate, cis-3-hexenyl benzoate]
2. COc1ccc(C)cc1
3. CC(C)c1ccc(C=O)cc1
4. Cc1ccc2c(c1)OCC(=O)CO2
5. CC(C)=CCCC(C)=CC=O
6. O=C1CCCCCCCCCCCCCC1
7. O=C(O)[C@@H](O)[C@H]1OC(=O)[C@H](O)[C@H]1O [D-Glucaro-1,4-lactone, D-glucaro-1,4-lactone, reference compound]
8. O=C1CCCCCCCC=CCCCCCCC1

Reply:
1: 80.6%; 2: 85.9%; 3: 97.1%; 4: 73.3%; 5: 84.1%; 6: 73.3%; 7: 98%; 8: 100%

Quick one: give me inhibition at 0.1 wt % for each item below, same order please.
1. COc1cc(C=O)ccc1O
2. CC(C)=CCC/C(C)=C/CO
3. CC(=O)OCCC(C)CCC=C(C)C (stereo not drawn) [Citronellyl acetate, citronellyl acetate]
4. COC1CCCCCCCCCCC1
5. CC(CC=O)CCCC(C)(C)O (stereo not drawn) [Hydroxycitronellal, hydroxycitronellal]
6. CCCCCCCCCC(C)C=O (stereo not drawn)

Reply:
82.1%
79.8%
84.2%
85%
85.3%
62.6%

For every listed record, write down its inhibition at 0.1 wt %.
1. CCCCCCC#CC(=O)OC [Methyl-2-nonynoate, methyl-2-nonynoate]
2. CC1=CCCC2(C)OC2CCC(C)=CCC1 (stereo not drawn) [Cedroxide]
3. CC(C)=CCC/C(C)=C\CO

Reply:
["98.2%", "82.6%", "85.7%"]

* * *

# assayed system: β-glucuronidase Type VII-A derived from Escherichia coli (Escherichia coli, UniProt P05804)
# Construct: purchased Sigma-Aldrich Corporation
# assay explanation: Inhibition of β-glucuronidase activity (PNPG substrate, absorbance at 400 nm)
# Type: biochemical
# applied conditions: 0.1 wt % in reaction solution; 1.6 units/mL enzyme; 37° C., 2 hours; pH 6.8
Quick rule: Inhibition rate (%) Concentration 0.1% of at least 90% means yes, below that means no.

Below, 5 molecules whose answers are already recorded.
INSERT INTO results (molecule, label_value) VALUES
  ('O=C1CCC=CCCCCCCCCCCO1 [4(5)-Cyclopentadecenolide, 4(5)-cyclopentadecenolide]', 'no'),
  ('CC(=O)OC(C)(C)C1CC=C(C)CC1 (stereo not shown) [Terpinyl acetate, terpinyl acetate]', 'yes'),
  ('CC1=CC[C@H](C(C)C)C=C1 (racemic)', 'yes'),
  ('CC(=O)C1(C)CC2=C(CCCC2(C)C)CC1C (stereo not shown)', 'no'),
  ('CC(=O)/C(C)=C/C1C(C)=CCCC1(C)C (stereo not shown)', 'yes');

Ask: Check the entry CCC12CCC3C(C)(C)CCCC3(C)C1CCO2 (stereo not shown) : does Inhibition rate (%) Concentration 0.1% equal or exceed 90%?
Reply: no

Ask: Please check the record C/C=C/C(=O)C1=C(C)CCCC1(C)C and state if its Inhibition rate (%) Concentration 0.1% is at or above 90%.
Reply: no

Ask: Would you say CC(=O)/C=C/C1=C(C)CCCC1(C)C shows Inhibition rate (%) Concentration 0.1% at minimum 90%?
Reply: no

Ask: Say whether CC/C=C\CC1=C(C)CCC1=O [cis-Jasmone, cis-jasmone] shows Inhibition rate (%) Concentration 0.1% of 90% or more.
Reply: yes

Ask: Does the molecule O=CCCC=C1CC2CC1C1CCCC21 (stereo not shown) have recorded Inhibition rate (%) Concentration 0.1% that is 90% or more?
Reply: no

Ask: Does the molecule O=C1CCCCC/C=C\CCCCCCCCO1 [7-Cyclohexadecenolide, 7-cyclohexadecenolide] have recorded Inhibition rate (%) Concentration 0.1% that is 90% or more?
Reply: yes
